property label: melting point

Hello, I would appreciate it if you could give melting point for each entry below.
1. Cn1ccc2ccc(OCc3ccccc3)cc21
2. COc1cc(OC)c(N2CCCC2)cc1/C=C/C(=O)c1ccc(S(=O)(=O)NCc2ccccn2)cc1
3. COc1ccc2c(c1)CCC(=COC(=O)c1ccccc1)C2=O
4. CC1COc2c(N3CCSCC3)c(F)cc3c(=O)c(C(=O)O)cn1c23 (stereo not given)
5. O=[N+]([O-])c1ccc(-c2nsc(Cl)n2)cc1
6. Nc1c(F)c(Cc2ccc(F)cc2)nc(C=O)c1Cl
7. CC(C)(C)c1cc(N(C(=O)CCCC(=O)O)c2ccccc2)cc(C(C)(C)C)c1O
8. Cc1cc(C)c(NC(=O)CC23CC4CC(CC(C4)C2)C3)cc1C

Solution:
1: 79 °C; 2: 112 to 116 °C; 3: 128 to 130 °C; 4: > 300 °C; 5: 143 to 145 °C; 6: 109 to 111 °C; 7: 168 to 170 °C; 8: 158 °C
